Collected Ki values appear next to each entry.
Biological target: Glutamyl aminopeptidase (Homo sapiens, UniProt Q07075)
Sequence (Q07075 whole entry): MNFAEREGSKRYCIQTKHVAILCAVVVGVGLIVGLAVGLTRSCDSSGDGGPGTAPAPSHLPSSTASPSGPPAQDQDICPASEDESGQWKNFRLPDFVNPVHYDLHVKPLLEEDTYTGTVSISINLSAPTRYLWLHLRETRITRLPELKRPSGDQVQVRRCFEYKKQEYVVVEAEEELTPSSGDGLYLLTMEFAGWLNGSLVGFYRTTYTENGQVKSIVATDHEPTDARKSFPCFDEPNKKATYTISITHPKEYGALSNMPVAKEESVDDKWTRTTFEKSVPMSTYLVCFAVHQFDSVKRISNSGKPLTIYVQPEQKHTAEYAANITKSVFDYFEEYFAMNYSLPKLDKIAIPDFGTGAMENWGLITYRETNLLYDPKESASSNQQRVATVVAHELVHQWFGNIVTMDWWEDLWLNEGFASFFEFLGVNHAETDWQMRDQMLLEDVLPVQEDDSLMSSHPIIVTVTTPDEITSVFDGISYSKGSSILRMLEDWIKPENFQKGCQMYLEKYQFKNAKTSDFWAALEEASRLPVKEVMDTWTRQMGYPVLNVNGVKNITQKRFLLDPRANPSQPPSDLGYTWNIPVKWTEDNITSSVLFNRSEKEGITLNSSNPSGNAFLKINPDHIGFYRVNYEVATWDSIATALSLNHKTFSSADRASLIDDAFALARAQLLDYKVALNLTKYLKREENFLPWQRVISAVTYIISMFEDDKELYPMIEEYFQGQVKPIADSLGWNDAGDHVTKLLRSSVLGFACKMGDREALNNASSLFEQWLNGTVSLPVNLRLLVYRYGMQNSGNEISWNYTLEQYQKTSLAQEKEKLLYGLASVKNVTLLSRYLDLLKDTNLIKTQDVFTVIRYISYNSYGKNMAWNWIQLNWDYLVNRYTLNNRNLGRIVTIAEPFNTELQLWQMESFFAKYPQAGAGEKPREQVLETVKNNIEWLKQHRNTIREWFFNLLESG
Test: Binding affinity against recombinant Aminopeptidase A

{"columns": ["compound", "Ki"],
 "data": [
  ["CC[C@@H](C)[C@H](NC(=O)[C@H](S)[C@@H](N)CCC(=O)O)C(=O)N[C@@H](CC(=O)O)C(=O)O", "13 nM"],
  ["CC[C@@H](C)[C@H](NC(=O)[C@@H](S)[C@H](N)CCP(=O)(O)O)C(=O)N[C@@H](CC(=O)O)C(=O)O", "910 nM"],
  ["CC[C@@H](C)[C@H](NC(=O)[C@@H](S)[C@H](N)CCS(=O)(=O)O)C(=O)N[C@@H](CS(=O)(=O)O)C(=O)O", "83.3 nM"],
  ["CC[C@@H](C)[C@H](NC(=O)[C@H](S)[C@H](N)CCS(=O)(=O)O)C(=O)O", "40 nM"],
  ["CC[C@@H](C)[C@H](NC(=O)[C@H](S)[C@H](N)CCS(=O)(=O)O)C(=O)N1CCC(C(=O)O)[C@@H]1C(=O)O (stereo not given in full)", "3.83 nM"],
  ["CC[C@@H](C)[C@H](NC(=O)[C@@H](S)[C@H](N)CCS(=O)(=O)O)C(N)=O", "4200 nM"],
  ["CC[C@@H](C)[C@H](NC(=O)[C@@H](S)[C@@H](N)CCC(=O)O)C(=O)N[C@@H](CC(=O)O)C(=O)O", "16 nM"],
  ["CC[C@@H](C)[C@H](NC(=O)[C@@H](S)[C@H](N)CCS(=O)(=O)O)C(=O)N[C@H](CC(=O)O)C(=O)O", "283 nM"],
  ["CC[C@@H](C)[C@H](NC(=O)[C@H](S)[C@H](N)CCS(=O)(=O)O)C(=O)N[C@@H](CC(=O)O)C(=O)O", "3.2 nM"],
  ["CC[C@@H](C)[C@H](NC(=O)[C@@H](S)[C@H](N)CCS(=O)(=O)O)C(=O)O", "1200 nM"],
  ["CC[C@@H](C)[C@H](NC(=O)[C@H](S)[C@H](N)CCS(=O)(=O)O)C(N)=O", "145 nM"],
  ["CC[C@@H](C)[C@H](NC(=O)[C@H](S)[C@H](N)CCS(=O)(=O)O)C(=O)N[C@H](CC(=O)O)C(=O)O", "5.36 nM"],
  ["CC[C@@H](C)[C@H](NC(=O)[C@@H](S)[C@H](N)CCC(=O)O)C(=O)N[C@@H](CC(=O)O)C(=O)O", "267 nM"],
  ["N[C@H](CCS(=O)(=O)O)[C@H](S)C(=O)N[C@@H](Cc1ccc(O)cc1)C(=O)N[C@@H](CC(=O)O)C(=O)O", "27 nM"],
  ["CC[C@@H](C)[C@H](NC(=O)[C@@H](S)[C@H](N)CCS(=O)(=O)O)C(=O)N1CCC(C(=O)O)[C@@H]1C(=O)O (stereo not given in full)", "240 nM"],
  ["CC[C@H](C)[C@@H](NC(=O)[C@H](S)[C@H](N)CCS(=O)(=O)O)C(=O)N[C@@H](CC(=O)O)C(=O)O", "14.7 nM"],
  ["CC[C@@H](C)[C@H](NC(=O)[C@@H](S)[C@H](N)CCS(=O)(=O)O)C(=O)N[C@@H](CC(=O)O)C(=O)O", "53 nM"],
  ["NC(CCS(N)(=O)=O)C(S)C(=O)N[C@@H](Cc1ccc(O)cc1)C(=O)N[C@@H](CC(=O)O)C(=O)O (stereo not given in full)", "150 nM"],
  ["CC[C@@H](C)[C@H](NC(=O)[C@H](S)[C@H](N)CCS(=O)(=O)O)C(=O)N1CCC(C(=O)O)[C@H]1C(=O)O (stereo not given in full)", "0.873 nM"],
  ["N[C@H](CCS(=O)(=O)O)[C@@H](S)C(=O)N[C@@H](Cc1ccc(O)cc1)C(=O)N[C@@H](CCS(=O)(=O)O)C(=O)O", "9.3 nM"],
  ["CC[C@@H](C)[C@H](NC(=O)[C@@H](S)[C@@H](N)CCS(=O)(=O)O)C(=O)N[C@@H](CC(=O)O)C(=O)O", "50 nM"],
  ["CC[C@@H](C)[C@H](NC(=O)[C@H](S)[C@H](N)CCS(=O)(=O)O)C(=O)N[C@@H](CS(=O)(=O)O)C(=O)O", "3.6 nM"],
  ["CC[C@@H](C)[C@H](NC(=O)[C@H](S)[C@H](N)CCP(=O)(O)O)C(=O)N[C@@H](CC(=O)O)C(=O)O", "12 nM"],
  ["CC[C@H](C)[C@@H](NC(=O)[C@@H](S)[C@H](N)CCS(=O)(=O)O)C(=O)N[C@@H](CC(=O)O)C(=O)O", "292 nM"],
  ["CC[C@@H](C)[C@H](NC(=O)[C@H](S)[C@H](N)CCC(=O)O)C(=O)N[C@@H](CC(=O)O)C(=O)O", "3.56 nM"],
  ["CC[C@@H](C)[C@H](NC(=O)C(S)C(N)CCS(N)(=O)=O)C(=O)N[C@@H](CC(=O)O)C(=O)O (stereo not given in full)", "80 nM"],
  ["CC[C@@H](C)[C@H](NC(=O)[C@@H](S)[C@H](N)CCS(=O)(=O)O)C(=O)N1CCC(C(=O)O)[C@H]1C(=O)O (stereo not given in full)", "110 nM"],
  ["CC[C@@H](C)[C@H](NCC(S)C(N)CCS(N)(=O)=O)C(=O)N[C@@H](CC(=O)O)C(=O)O (stereo not given in full)", "51 nM"],
  ["N[C@H](CCS(=O)(=O)O)[C@@H](S)C(=O)N[C@@H](Cc1ccc(O)cc1)C(=O)N[C@@H](CC(=O)O)C(=O)O", "4.3 nM"],
  ["N[C@H](CCS(=O)(=O)O)[C@H](S)C(=O)N[C@@H](Cc1ccc(O)cc1)C(=O)N[C@@H](CCS(=O)(=O)O)C(=O)O", "73.3 nM"]
]}

Data origin, for the record: ChEMBL document CHEMBL1132539
